Just for reference, PubChem BioAssay (NCI) is where these values come from.

Test system: P388/ADR leukemia
Test: NCI tumour cell line growth inhibition, 48 h
Parameter measured: TGI (µM)
Give your result in µM as a bare value.

INSERT INTO assay_data (smiles_representation, reported) VALUES
  ('O=C(/C=C/c1ccccc1)CCN1CCOCC1', 7.76);

Shift focus to the following entry.
Input O=C(CCl)NNC1=Nc2ccc(Cl)cc2SC1 . Output TGI: 3.52

====

System: NCI/ADR-RES ovarian
Test: NCI tumour cell line growth inhibition, 48 h
The compounds listed here are annotated with their TGI.

Worked set:
INSERT INTO measurements (compound, reported) VALUES
  ('CO/N=C(\COc1ccc2c(c1)[nH]c1ccccc12)c1ccc(F)cc1', '> 100 µM'),
  ('COc1cc2c3c(n(C)c(=O)c2cc1OC)-c1cc2c(cc1/C3=C\CCCCN1C(=O)c3ccccc3C1=O)OCO2', '> 100 µM'),
  ('CC(=O)Oc1cc2c(cc1OC(C)=O)OCC(c1ccccc1)C2 (centres undefined)', '134 µM'),
  ('CNCCCNCCCCNCCCN1C(=O)c2ccc3c4c(ccc(c24)C1=O)C(=O)N(CCCNCc1ccccc1OC)C3=O', '> 100 µM'),
  ('CCN1C(=O)c2cc(OC)c(OC)cc2C(=O)C12OC(=O)c1cc3c(cc12)OCO3 (centres undefined)', '> 100 µM');

Input CCCN(CCS(C)(=O)=O)Cc1ccc(-c2ccc3ncnc(Nc4ccc(OCc5cccc(F)c5)c(Cl)c4)c3c2)o1 . Output TGI: > 25 µM

Input CCC(CCCN)Nc1cc(OC)cc2c(C)ccnc12 (centres undefined) . Output TGI: 76.4 µM

Input CC(=O)/C=C/c1cn(C(=O)OC(C)(C)C)c2ccc(Br)cc12 . Output TGI: 45.4 µM

Input COc1ccc2c(c1)N(CCO)C1=C(C(=O)OC1)C2c1cccc(F)c1 (centres undefined) . Output TGI: > 21.4 µM

====

Test system: HCT-116 colon
Experiment: NCI tumour cell line growth inhibition, 48 h
Parameter measured: TGI

Worked set:
INSERT INTO measurements (molecule, measured_target, reported) VALUES
  ('CN1C(=O)N(C)C2C1NN=c1s/c(=C\c3ccc(C(F)(F)F)cc3)c(=O)n12 (stereo not given)', 'HCT-116 colon', '> 100 µM'),
  ('CN1CCN(C(=O)c2cc(-c3ccc4ncnc(N5CCc6cc(F)c(Cl)cc65)c4c3)cnc2N)CC1', 'HCT-116 colon', '2.89 µM'),
  ('CC1=NC(=Cc2cccc(Cl)c2)C(=O)N1n1c(-c2ccccc2)nc2ccccc2c1=O', 'HCT-116 colon', '> 100 µM');

Input O=S1(=O)OCCOS(=O)(=O)C1(F)Br . Output TGI: > 100 µM

Input C[C@@H]1CN(Cc2ccc(F)cc2)[C@@H](C)CN1C(=O)c1cc2c(C(=O)C(=O)N(C)C)cn(C)c2cc1Cl . Output TGI: > 71.9 µM

====

System: KM20L2 colon
Assay: NCI tumour cell line growth inhibition, 48 h
Parameter measured: TGI

Worked set:
INSERT INTO results (compound, parameter_measured, reported) VALUES
  ('N#CC(=C1C=CC(=NO)C=C1)c1ccc(Cl)cc1', 'TGI', '> 100 µM'),
  ('CCCP1(=O)C=C(C)C(=C(Cl)Cl)C(C)=C1 (stereo unspecified)', 'TGI', '47.1 µM'),
  ('CCCCCCCOc1ccc(/C=C\c2cc[n+](CCCCCCCC[n+]3ccc(/C=C\c4ccc(OCCCCCCC)cc4)cc3)cc2)cc1', 'TGI', '63.1 µM'),
  ('O=C(/C=C/c1ccccc1)CCN1CCOCC1', 'TGI', '31.2 µM'),
  ('COc1cc(C(=O)C/C(CCC(=O)Nc2ccccc2[N+](=O)[O-])=N\NC(N)=O)ccc1O', 'TGI', '> 100 µM'),
  ('C#C[C@]1(O)CCCC2=CC(=O)CC[C@@]21C', 'TGI', '> 100 µM'),
  ('Cc1cccc(C)c1NC(=O)/C(=N/NC(N)=S)C(C)C(=O)c1ccc(Cl)cc1 (stereo unspecified)', 'TGI', '> 100 µM'),
  ('O=C(O)c1ccc(C2COc3ccc(Cl)cc3C2)cc1 (stereo unspecified)', 'TGI', '> 100 µM');

Bench note, KM20L2 colon: C/C=C1\CN2CCc3c([nH]c4ccccc34)C2CC1C(=O)OC (stereo unspecified) , TGI reads > 322 µM

Bench note, KM20L2 colon: CC(=O)C(CN(CC(C)C)CC(C)C)C(c1ccccc1)c1c(O)c2ccccc2oc1=O (stereo unspecified) , TGI reads > 100 µM

Bench note, KM20L2 colon: Cc1ccc(/C=C/C(=O)C(C)(C)CN2CCCCC2)cc1 , TGI reads 10.7 µM
